Test System: USP7 (Homo sapiens (Human), UniProt Q93009)
Sequence (Q93009 whole entry): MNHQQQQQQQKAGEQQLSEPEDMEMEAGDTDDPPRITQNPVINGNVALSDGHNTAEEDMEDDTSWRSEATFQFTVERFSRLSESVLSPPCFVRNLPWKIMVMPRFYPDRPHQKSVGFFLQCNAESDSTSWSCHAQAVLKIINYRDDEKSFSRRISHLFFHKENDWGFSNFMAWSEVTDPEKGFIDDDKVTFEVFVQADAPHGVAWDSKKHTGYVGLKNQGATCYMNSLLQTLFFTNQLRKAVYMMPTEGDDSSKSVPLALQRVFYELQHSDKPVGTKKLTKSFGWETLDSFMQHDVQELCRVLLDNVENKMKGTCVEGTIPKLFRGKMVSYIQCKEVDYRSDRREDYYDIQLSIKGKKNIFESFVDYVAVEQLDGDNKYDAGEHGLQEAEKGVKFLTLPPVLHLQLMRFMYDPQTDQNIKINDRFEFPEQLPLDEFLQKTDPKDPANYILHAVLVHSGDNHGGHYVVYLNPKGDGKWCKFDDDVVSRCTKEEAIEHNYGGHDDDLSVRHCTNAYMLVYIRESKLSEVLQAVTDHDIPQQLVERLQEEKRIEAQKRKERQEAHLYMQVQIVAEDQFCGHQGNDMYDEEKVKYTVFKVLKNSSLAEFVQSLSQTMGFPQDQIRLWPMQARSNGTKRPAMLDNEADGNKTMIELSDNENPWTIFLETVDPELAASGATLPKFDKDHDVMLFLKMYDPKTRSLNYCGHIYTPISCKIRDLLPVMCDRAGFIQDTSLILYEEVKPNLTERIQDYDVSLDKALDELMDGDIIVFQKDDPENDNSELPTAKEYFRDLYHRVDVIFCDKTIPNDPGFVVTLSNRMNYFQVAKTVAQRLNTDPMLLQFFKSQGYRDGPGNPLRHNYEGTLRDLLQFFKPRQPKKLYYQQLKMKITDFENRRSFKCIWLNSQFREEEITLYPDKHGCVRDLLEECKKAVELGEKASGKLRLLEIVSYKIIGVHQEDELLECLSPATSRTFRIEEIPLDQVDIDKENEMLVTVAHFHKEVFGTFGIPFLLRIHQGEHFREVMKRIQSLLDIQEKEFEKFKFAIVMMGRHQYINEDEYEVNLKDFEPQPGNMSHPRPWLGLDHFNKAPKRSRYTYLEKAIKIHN
Assay Method Text: USP7 fluorescence polarisation (FP) assay with ubiquitin-Lys-TAMRA substrate
Type: biochemical
Condition Summary: biochemical inhibition; read-out: USP7 IC50 activity (Table 3a, classes)
Experimental: USP7 activity was monitored in a fluorescence polarisation (FP) homogeneous assay using the isopeptide ubiquitin-Lys-TAMRA substrate (U-558, Boston Biochem). Full-length USP7 was purchased from Boston Biochem (His6-USP7FL, E-519). […] FP was measured every 5 min over a period of 1.5 h (within the linear range of the assay) using a Pherastar FSX (BMG Labtech) exciting at 530 nm and measuring the amount of parallel and perpendicular light at 575 nm. […]
pIC50: −log10 of the molar value.
Measured pIC50 by item

Reference set, count: 3
C[C@H]1CN[C@H](c2ccc(-n3c(Cl)cc4c(=O)n(CC5(O)CCN(C(=O)/C=C/c6ccccc6)CC5)cnc43)cc2)CO1 [Example 63]	6.60 to 7.00
C[C@H]1CN[C@H](c2ccc(-n3c(Cl)cc4c(=O)n(CC5(O)CCN(C(=O)c6cccc(F)c6F)CC5)cnc43)cc2)CO1 [Example 39]	5.70 to 6.60
CC1(C)CN[C@H](c2ccc(-n3c(Cl)cc4c(=O)n(CC5(O)CCN(C(=O)C6(C7CC7)CC6)CC5)cnc43)cc2)CO1 (single isomer, unassigned) [Example 40]	6.60 to 7.00

The measured pIC50 associated with O=C(c1ccc(Cl)cc1)N1CCC(O)(Cn2cnc3c(cc(Cl)n3-c3ccc(C4COC5CC5N4)cc3)c2=O)CC1 (centres unmarked) [Example 60] reads 5.70 to 6.60

The measured pIC50 associated with CC1(C)CN[C@@H](c2ccc(-n3c(Cl)cc4c(=O)n(CC5(O)CCN(C(=O)c6ccc(Cl)cc6)CC5)cnc43)cc2)CO1 (single isomer, unassigned) [Example 23] reads 6.60 to 7.00

The measured pIC50 associated with Cc1cc(-n2c(Cl)cc3c(=O)n(CC4(O)CCN(C(=O)C5(C)CC5)CC4)cnc32)ccc1[C@@H]1COCCN1 (single isomer, unassigned) [Example 74] reads 6.60 to 7.00

The measured pIC50 associated with O=C(C[C@H](c1ccccc1)C(F)(F)F)N1CCC(O)(Cn2cnc3c(cc(Cl)n3-c3ccc([C@H]4COCCN4)c(C(F)(F)F)c3)c2=O)CC1 (mixture of isomers) [Example 87] reads 5.70 to 6.60

The measured pIC50 associated with O=C(c1ccc(Cl)cc1)N1CCC(O)(Cn2cnc3c(cc(Cl)n3-c3ccc([C@H]4CO[C@H](C5CC5)CN4)cc3)c2=O)CC1 (single isomer, unassigned) [Example 61] reads 6.60 to 7.00

The measured pIC50 associated with C[C@@H]1OCCN[C@H]1c1ccc(-n2c(Cl)cc3c(=O)n(CC4(O)CCN(C(=O)c5ccc(Cl)cc5)CC4)cnc32)cc1 [Example 6] reads > 7.00
